Cited source for all entries: patent US20240270821A1

Listing of entries alongside the reported log10 EC50.
# target desc: hGIPR (Homo sapiens)
# Sequence (P48546 22-466): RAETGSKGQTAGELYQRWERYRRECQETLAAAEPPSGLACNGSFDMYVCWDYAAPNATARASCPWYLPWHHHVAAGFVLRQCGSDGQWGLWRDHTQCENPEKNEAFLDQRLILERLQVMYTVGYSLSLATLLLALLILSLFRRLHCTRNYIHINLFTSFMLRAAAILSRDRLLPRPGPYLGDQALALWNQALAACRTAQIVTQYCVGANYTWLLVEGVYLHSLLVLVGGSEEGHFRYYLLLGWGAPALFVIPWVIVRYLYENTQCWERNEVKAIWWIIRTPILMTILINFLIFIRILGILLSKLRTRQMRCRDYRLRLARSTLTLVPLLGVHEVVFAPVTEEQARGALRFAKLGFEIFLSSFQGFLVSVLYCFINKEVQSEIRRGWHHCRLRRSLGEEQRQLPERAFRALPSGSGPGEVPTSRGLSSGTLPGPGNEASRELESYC
# assay procedure: Functional cAMP activation in the presence of 0.1% casein (no HSA);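 also: intracellular cAMP rise after 30 min at 37 °C read by HTRF against a standard curve, scaled between buffer alone (0%) and top control ligand concentration (100%), four-parameter fit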
# Assay type: cell-based
# measurement setup: read-out: Relative cAMP EC50, hGIPR
Starred links: 1 amine or outer side, 2 acyl side, 3 side chain; linkers in the order of their positions; H or OH if unused. Non-standard residues stand in square brackets, D forms with d. Groups on a side chain read outwards from the residue. No end group written: not given here. *: point of attachment. C18 diacid = O=C(O)CCCCCCCCCCCCCCCCC(=O)*; αMePhe(2-F) = C[C@](N)(Cc1ccccc1F)C(=O)O; γGlu = O=C(O)[C@H](CCC(=O)[*:2])N[*:1]; αMe4Pal = C[C@](N)(Cc1ccncc1)C(=O)O; αMeY = C[C@](N)(Cc1ccc(O)cc1)C(=O)O; 4Pal = N[C@@H](Cc1ccncc1)C(=O)O; αMeL = CC(C)C[C@](C)(N)C(=O)O; αMeS = C[C@](N)(CO)C(=O)O; Orn = NCCC[C@H](N)C(=O)O; AEEA = NCCOCCOCC(=O)O; Aib = CC(C)(N)C(=O)O
measured quantity: log10 EC50 (log10 of the value in nM)

INSERT INTO measurements (substance, reported_measurement) VALUES
  ('H-Y[Aib]QGT[αMePhe(2-F)]TSD[4Pal][αMeS]I[αMeL]LD[Orn]K([γGlu-γGlu-C18 diacid])AA[Aib]EFI[dE][αMeY]LIEGGPSSGAPPPSGGGE-NH2 [Example 747]', -2.02),
  ('H-Y[Aib]QGT[αMePhe(2-F)]TSD[4Pal]SI[αMeL]LD[Orn]K([AEEA-γGlu-C18 diacid])AQ[αMe4Pal]EFI[dE][αMeY]LQEGGPSSGEPPPSGS-NH2 [Example 648]', -1.41),
  ('H-Y[Aib]QGT[αMePhe(2-F)]TSD[4Pal]SI[αMeL]LD[Orn]K([γGlu-γGlu-C18 diacid])AQ[αMe4Pal][Orn]FI[dE][αMeY]LIEGGPSSGEPPPETE-NH2 [Example 686]', -2.11),
  ('H-Y[Aib]QGT[αMePhe(2-F)]TSD[4Pal]SILLDKK([γGlu-γGlu-C18 diacid])AQ[Aib]AFIEYLEEGGPSSGEPPPSGTGE-NH2 [Example 607]', -1.06),
  ('Y[Aib]QGT[αMePhe(2-F)]TSD[4Pal][αMeS]I[αMeL]LD[Orn]K([γGlu-γGlu-C18 diacid])AQ[Aib][Orn]FI[dE][αMeY]LQEGGPSSGEPPPEGTE-NH2 [Example 503]', -1.29);

###

Listing of entries alongside the reported pEC50.
# target desc: human GcgR (Homo sapiens, UniProt P47871)
# Sequence (P47871 26-477): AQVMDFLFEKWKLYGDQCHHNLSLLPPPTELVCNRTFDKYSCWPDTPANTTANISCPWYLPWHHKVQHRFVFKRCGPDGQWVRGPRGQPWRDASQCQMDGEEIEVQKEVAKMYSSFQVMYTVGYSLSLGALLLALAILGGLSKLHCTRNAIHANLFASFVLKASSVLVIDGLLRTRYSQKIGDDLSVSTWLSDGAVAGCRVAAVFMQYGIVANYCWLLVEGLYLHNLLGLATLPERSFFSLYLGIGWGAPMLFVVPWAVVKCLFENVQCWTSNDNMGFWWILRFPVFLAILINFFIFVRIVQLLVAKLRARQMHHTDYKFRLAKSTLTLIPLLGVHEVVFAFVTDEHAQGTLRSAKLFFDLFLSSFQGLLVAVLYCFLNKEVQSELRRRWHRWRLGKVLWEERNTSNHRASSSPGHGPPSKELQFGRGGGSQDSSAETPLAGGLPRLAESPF
# assay procedure: Functional cAMP activity in the presence of 1% HSA
# Format: cell-based
# measurement setup: read-out: cAMP Rel EC50, hGcgR
pEC50: −log10 of the molar value. Starred links: 1 amine or outer side, 2 acyl side, 3 side chain; linkers in the order of their positions; H or OH if unused. Non-standard residues stand in square brackets, D forms with d. Groups on a side chain read outwards from the residue. No end group written: not given here. *: point of attachment. C18 diacid = O=C(O)CCCCCCCCCCCCCCCCC(=O)*; αMePhe(2-F) = C[C@](N)(Cc1ccccc1F)C(=O)O; γGlu = O=C(O)[C@H](CCC(=O)[*:2])N[*:1]; αMe4Pal = C[C@](N)(Cc1ccncc1)C(=O)O; αMeY = C[C@](N)(Cc1ccc(O)cc1)C(=O)O; 4Pal = N[C@@H](Cc1ccncc1)C(=O)O; αMeL = CC(C)C[C@](C)(N)C(=O)O; αMeS = C[C@](N)(CO)C(=O)O; Orn = NCCC[C@H](N)C(=O)O; AEEA = NCCOCCOCC(=O)O; Aib = CC(C)(N)C(=O)O
measured quantity: pEC50

INSERT INTO assay_data (substance, reported_measurement) VALUES
  ('H-Y[Aib]QGTFTSDFS[Orn][αMeL]LDKK([AEEA-γGlu-C18 diacid])AQ[Aib]AFIEYLLAGGPSSGAPPPSGD-NH2 [Example 85]', 5.90),
  ('Y[Aib]QGT[αMePhe(2-F)]TSD[4Pal][αMeS]I[αMeL]LD[Orn]K([AEEA-γGlu-C18 diacid])AQ[αMe4Pal]EFI[dE][αMeY]LIEGGPPS[Aib]EPPPEGE-NH2 [Example 1190]', 6.72),
  ('H-Y[Aib]QGTFTSDFS[Orn][αMeL]LDKK([AEEA-γGlu-C18 diacid])AQ[Aib]AFIEYLLEGG[4Pal]SSGAPPPGGS-NH2 [Example 163]', 6.10),
  ('H-Y[Aib]QGT[αMePhe(2-F)]TSD[4Pal][αMeS]I[αMeL]LD[Orn]K([AEEA-γGlu-C18 diacid])AQ[Aib][Orn]FIEYLIEAGPSSGEPPPEEG-NH2 [Example 484]', 6.69),
  ('H-Y[Aib]QGT[αMePhe(2-F)]TSD[4Pal][αMeS]I[αMeL]LD[Orn]K([AEEA-γGlu-C18 diacid])AQ[αMe4Pal]EFI[dE][αMeY]LIEGGPSSGEPPPSGS-NH2 [Example 710]', 6.90);
